- System: A549
- ASSAY_TEXT: Antiproliferative activity against human A549 cells assessed as inhibition of cell growth measured after 72 hrs by MTT assay
- Assay type: functional, cell-based
- CONDITION_LABEL: A549, 72 h
pIC50: −log10 of the molar value.
ASSAY_METRIC: pIC50

>>> experimental_value("CCOP(=O)(OCC)C(O)c1ccc(Nc2ncc3scc(-c4ccccc4OC)c3n2)cc1 (stereo not drawn)")
6.46
>>> experimental_value("COc1ccccc1-c1csc2cnc(Nc3ccc(NC(=O)[C@H]4CCCNC4)cc3)nc12")
6.30
>>> experimental_value("COc1ccccc1-c1csc2cnc(Nc3ccc(NC(=O)C4CCNCC4)cc3)nc12")
6.35
